The origin of these recorded values is patent US12534534.

MEASURED TARGET: T1, hCD137-mFc-Avi (human, UniProt Q07011 24-186)
T1 construct: dimer; also called human CD137-mFc-Avi; human CD137-mFc
PROTOCOL: ELISA, hCD137-mFc-Avi coated, 100 nM antibody, competitor CD137L-His; normalised to G1/11D4 = 0 and G1/MOR7480.1 = 100; mean of n=2

{"BINDER": "FS20-22-49AA/FS30-35-14 (bispecific antibody, human IgG1, kappa, L234A L235A, V domains shown, M100F (Kabat) to A against FS30-35; also called FS30-35-14 in mAb^2 format) VH: EVQLLESGGGLVQPGGSLRLSCAASGFTFSAYNIHWVRQAPGKGLEWVSDISPYGGATNYADSVKGRFTISRDNSKNTLYLQMNSLRAEDTAVYYCARNLYELSAYSYGADYWGQGTLVTVSS VL: EIVLTQSPGTLSLSPGERATLSCRASQSVSSSYLAWYQQKPGQAPRLLIYGASSRATGIPDRFSGSGSGTDFTLTISRLEPEDFAVYYCQQYYYSSPITFGQGTKVEIKR", "UNIT ABBREVIATION": "%", "% CD137 ligand blocking activity": 6.6}
{"BINDER": "FS20-22-49AA/FS30-10-3 (bispecific antibody, human IgG1, kappa, L234A L235A, V domains shown, M97 (Kabat) to N against FS30-10; also called FS30-10-3 in mAb^2 format) VH: EVQLLESGGGLVQPGGSLRLSCAASGFTFSSYDMSWVRQAPGKGLEWVSDIDPTGSKTDYADSVKGRFTISRDNSKNTLYLQMNSLRAEDTAVYYCARDLNVYGFDYWGQGTLVTVSS VL: EIVLTQSPGTLSLSPGERATLSCRASQSVSSSYLAWYQQKPGQAPRLLIYGASSRATGIPDRFSGSGSGTDFTLTISRLEPEDFAVYYCQQSYSYPVTFGQGTKVEIKR", "UNIT ABBREVIATION": "%", "% CD137 ligand blocking activity": 49.4}
